Measured EC50 values are reported for all entries that follow.
Biological target: human APJ receptor (Homo sapiens (Human), UniProt P35414)
Sequence (P35414 whole entry): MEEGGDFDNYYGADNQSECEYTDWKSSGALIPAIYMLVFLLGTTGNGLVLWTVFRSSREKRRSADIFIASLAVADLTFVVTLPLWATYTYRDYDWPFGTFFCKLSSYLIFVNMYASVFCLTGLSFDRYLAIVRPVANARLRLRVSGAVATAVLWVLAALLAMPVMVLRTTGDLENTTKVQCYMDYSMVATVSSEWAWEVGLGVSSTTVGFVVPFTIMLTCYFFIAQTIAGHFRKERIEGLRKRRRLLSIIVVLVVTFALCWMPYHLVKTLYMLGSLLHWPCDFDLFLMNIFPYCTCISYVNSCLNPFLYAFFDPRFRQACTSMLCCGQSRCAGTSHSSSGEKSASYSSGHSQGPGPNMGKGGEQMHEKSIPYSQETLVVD
Test: [35S]GTPγS binding assay on membranes from CHO cells stably expressing human APJ receptor
Conditions: means of several independent experiments, read-out: Activity hAPJ SPA EC50 IP
Report as a plain number; the unit nM is understood.

>>> assayresult("COc1cccc(OC)c1-n1c(NS(=O)(=O)[C@@H](C)[C@H](OC)c2ncc(C)cn2)nnc1-c1ccc(Cl)c(Cl)c1 [Example 70.0]")
3.8

EC50 value, target or system human APJ receptor (Homo sapiens (Human), UniProt P35414), for COc1cccc(OC)c1-n1c(NS(=O)(=O)[C@H]2C[C@@H](OC(C)C)CN(c3ncc(F)cn3)C2)nnc1-c1ccccc1 (single isomer, unassigned) [Example 59.0] : 86

EC50 value, target or system human APJ receptor (Homo sapiens (Human), UniProt P35414), for COc1cccc(OC)c1-n1c(NS(=O)(=O)[C@H]2CCCN(c3ncc(F)cn3)C2)nnc1-c1ccccc1 (single isomer, unassigned) [Example 22.0] : 170

EC50 value, target or system human APJ receptor (Homo sapiens (Human), UniProt P35414), for COc1ccnc(OC)c1-n1c(NS(=O)(=O)[C@@H](C)[C@H](OC)c2ncc(C)cn2)nnc1-c1ccccc1 (single isomer, unassigned) [Example 24.0] : 0.27

EC50 value, target or system human APJ receptor (Homo sapiens (Human), UniProt P35414), for COc1ncnc(OC)c1-n1c(NS(=O)(=O)[C@@H](C)Cc2ncc(F)cn2)nnc1-c1ccccc1 (single isomer, unassigned) [Example 9.0] : 40

EC50 value, target or system human APJ receptor (Homo sapiens (Human), UniProt P35414), for COc1ncnc(OC)c1-n1c(NS(=O)(=O)CCc2ccc(F)cc2C#N)nnc1-c1ccccc1 [Example 10.0] : 42

EC50 value, target or system human APJ receptor (Homo sapiens (Human), UniProt P35414), for COc1cccc(OC)c1-n1c(NS(=O)(=O)[C@H]2CCCN(c3ncc(Cl)cn3)C2)nnc1-c1ccccc1 (single isomer, unassigned) [Example 35.0] : 280

EC50 value, target or system human APJ receptor (Homo sapiens (Human), UniProt P35414), for COc1cccc(OC)c1-n1c(NS(=O)(=O)[C@@H](C)[C@H](C)c2cnc(C)cn2)nnc1-c1ccccc1 [Example 25.0] : 1.3

EC50 value, target or system human APJ receptor (Homo sapiens (Human), UniProt P35414), for COc1cccc(OC)c1-n1c(NS(=O)(=O)[C@@H](C)[C@H](OC)c2ncc(C)cn2)nnc1-c1cccc(C#N)c1 [Example 86.0] : 10.6

====

Target: human APJ receptor (Homo sapiens (Human))
Test: [35S]GTPγS binding assay on membranes from CHO cells stably expressing human APJ receptor
Settings: means of several independent experiments, read-out: Activity hAPJ SPA EC50 IP
metric: EC50 (nM)
Report as a plain number; the unit nM is understood.

>>> assayresult("COc1cccc(OC)c1-n1c(NS(=O)(=O)c2cncc(Br)c2)nnc1-c1ccccc1 [Example 60.0]")
350
>>> assayresult("Cc1cnc([C@@H](C)[C@H](C)S(=O)(=O)Nc2nnc(-c3ccccc3)n2-c2c(F)cccc2F)nc1 [Example 40.0]")
4.4

EC50 value, target or system human APJ receptor (Homo sapiens (Human)), for Cc1cnc([C@H](OC(C)C)[C@H](C)S(=O)(=O)Nc2nnc(-c3ccccc3)n2C2(C)CC2)nc1 [Example 99.0] : 8

EC50 value, target or system human APJ receptor (Homo sapiens (Human)), for COc1cccc(OC)c1-n1c(NS(=O)(=O)[C@@H](C)[C@H](OC)c2ncc(C)cn2)nnc1-c1cccc2cnccc12 [Example 95.0] : 340
